Each entry below lists one item and its recorded solubility kinetic value.
Settings: buffer; pH 7.4; 200.0 µM

MOLECULE: CCOc1ccc(N2CC(C(=O)N3CCCC3)CC2=O)cc1 (configuration not stated)
solubility kinetic: > 45.4 µg/mL
//
MOLECULE: CC1(NS(=O)(=O)c2ccc(Cl)s2)CCS(=O)(=O)C1 (configuration not stated)
solubility kinetic: > 49.5 µg/mL
//
MOLECULE: COc1cc(OC)cc(C(=O)N2CC(=O)Nc3ccccc32)c1
solubility kinetic: > 46.8 µg/mL
//
MOLECULE: Cc1cc(C)n2ncc(C(=O)O)c2n1
solubility kinetic: > 28.7 µg/mL
//
MOLECULE: O=S(=O)(NCc1ccco1)c1cnc(Cl)c(Cl)c1
solubility kinetic: > 46.1 µg/mL
//
MOLECULE: Cc1cc(C)c(NC(=O)CCc2c(C)noc2C)c(C)c1
solubility kinetic: > 43 µg/mL
//
MOLECULE: COc1ccc(OCCC(=O)N2CCN(C)CC2)cc1.Cl
solubility kinetic: > 47.2 µg/mL
//
MOLECULE: Cc1cc(C)nc(NC(=O)Cc2ccc(Br)cc2)n1
solubility kinetic: > 48 µg/mL
//
MOLECULE: O=C1C(Cl)=C(N2CCOCC2)C(=O)N1c1ccccc1F
solubility kinetic: 38.7 µg/mL
//
MOLECULE: Cc1cc(NC(=O)Nc2ccc(Cl)c(Cl)c2)no1
solubility kinetic: < 0.2 µg/mL
//
MOLECULE: O=S(=O)(c1cccs1)N1CCN(c2ccc(Cl)cc2)CC1
solubility kinetic: < 0.4 µg/mL
//
MOLECULE: C(=C\c1ccco1)/c1ccc2ccccc2n1
solubility kinetic: 10.7 µg/mL
//
MOLECULE: O=C(NS(=O)(=O)Nc1ccccn1)c1c[nH]c2ccccc12
solubility kinetic: > 47.4 µg/mL
//
MOLECULE: Cc1ccc(S(=O)(=O)NCCC(=O)Oc2ccc3ccc(=O)oc3c2)cc1
solubility kinetic: 25.5 µg/mL
//
MOLECULE: COc1ccccc1OC(=O)Nc1ccc(Cl)cc1
solubility kinetic: 17.8 µg/mL
//
MOLECULE: COc1ccc(OCC(O)CNC(=O)Nc2ccc(C(C)(C)C)cc2)cc1 (configuration not stated)
solubility kinetic: < 0.4 µg/mL
//
MOLECULE: CCOc1ccc(N/C=C/C(=O)c2ccccc2)cc1
solubility kinetic: 0.8 µg/mL
